- target system: huFcγRIIA R131 (human) (UniProt P12318)
- Sequence (P12318 36-218 H167R limits assumed): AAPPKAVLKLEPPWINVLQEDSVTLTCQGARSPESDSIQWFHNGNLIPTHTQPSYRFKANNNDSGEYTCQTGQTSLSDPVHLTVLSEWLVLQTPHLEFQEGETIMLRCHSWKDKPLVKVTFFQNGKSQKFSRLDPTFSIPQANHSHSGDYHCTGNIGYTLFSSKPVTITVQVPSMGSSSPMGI
- test details: SPR, Biacore T200
measured metric: Kd (nM)

{"substance": "chimeric anti-mouse GITR antibody (DTA-1 Fab) human IgG1-GASDALIE", "target system": "huFcγRIIA R131 (human) (UniProt P12318)", "measured metric": "Kd", "observed value": 50}
